TESTED_ON: ProLink tagged human APJ (Apelin Receptor) in CHO-K1 AGTRL1 β-Arrestin cells (human, UniProt P35414 1-380)
Sequence (P35414 whole entry): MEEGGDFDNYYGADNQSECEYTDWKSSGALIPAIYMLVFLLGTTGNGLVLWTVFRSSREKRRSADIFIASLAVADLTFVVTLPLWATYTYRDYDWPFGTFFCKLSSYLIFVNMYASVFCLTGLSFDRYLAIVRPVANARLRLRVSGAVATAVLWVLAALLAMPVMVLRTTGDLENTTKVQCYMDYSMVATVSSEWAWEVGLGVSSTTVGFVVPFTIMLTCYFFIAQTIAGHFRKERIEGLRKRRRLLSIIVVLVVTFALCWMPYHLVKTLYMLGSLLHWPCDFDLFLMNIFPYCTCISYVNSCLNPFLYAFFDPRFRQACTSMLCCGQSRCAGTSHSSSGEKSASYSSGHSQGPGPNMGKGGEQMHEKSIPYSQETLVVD
ASSAY_METHOD_TEXT: cell-based or functional assay
Square brackets hold non-standard residues; d marks the D form. Ends that are not written are not given here.
The following binders are shown together with reported β-Arrestin recruitment, Percent of Apelin-13 Control Activity (10 µM peptide) values.
Give the value in % but do not write % after it.

These recorded examples may help you get a feel for the data.
# BINDER, UNIT_NAME, NUMERIC_VALUE
data = [
    ("KRRMMGMVFQSLCGA ((PEG12) at the N-terminal K; C-terminal (dA) = D-alanine) [SEQ ID NO: 36]", "%", 63),
    ("RRMMGMVFQSLSG[dA] [SEQ ID NO: 17]", "%", 10),
    ("RRMAYQCLEG[dA] [SEQ ID NO: 27]", "%", -1),
    ("RRMMGMVFQCLSG[dA] [SEQ ID NO: 16]", "%", 0),
    ("RRMEVYQCLEG[dA] [SEQ ID NO: 32]", "%", 0),
    ("RXMMGMVFQSLCGA ((Aib) = aminoisobutyric acid at position 2; C-terminal (dA) = D-alanine) [SEQ ID NO: 34]", "%", 8),
    ("RRMVFQCLEG[dA] [SEQ ID NO: 23]", "%", 0),
    ("MRRMMGMVFQCLCGL [SEQ ID NO: 7]", "%", 91),
]

Switching to the query record.
Need β-Arrestin recruitment, Percent of Apelin-13 Control Activity (10 µM peptide) of RRMMGMVEQSLCG[dA] [SEQ ID NO: 38] , thanks.
0
